System: Plasmodium falciparum strain W2
Assay explanation: In vitro screening protocol II, [3H] hypoxanthine incorporation IC50 assay, W2
Assay type: cell-based
Conditions used: P. falciparum W2
Quantity kind: IC50 W2

The cases that follow already have their IC50 W2 on record.
compound="CC[C@H]1OC(=O)[C@H](C)[C@@H](O[C@H]2C[C@@](C)(OC)[C@@H](O)[C@H](C)O2)[C@H](C)[C@@H](O[C@@H]2O[C@H](C)C[C@H](N(C)C)[C@H]2O)[C@](C)(O)C[C@@H](C)CN(CCCNC(=O)C(Cc2ccc(F)cc2)NC(C)=O)[C@H](C)[C@@H](O)[C@]1(C)O.O=CO (stereo partly drawn)" data_value="D (1000 < X ≦ 2500)"
compound=CC[C@H]1OC(=O)[C@H](C)[C@@H](O[C@H]2C[C@@](C)(OC)[C@@H](O)[C@H](C)O2)[C@H](C)[C@@H](O[C@@H]2O[C@H](C)C[C@H](N(C)C)[C@H]2O)[C@](C)(O)C[C@@H](C)CN(CCCNC(=O)CCc2ccc(F)cc2)[C@H](C)[C@@H](O)[C@]1(C)O.O=CO data_value="C (200 < X ≦ 1000)"
compound="CCC1OC(=O)C(C)C(OC2CC(C)(OC)C(O)C(C)O2)C(C)C(OC2OC(C)CC(N(C)C)C2O)C(C)(O)CC(C)CN(CCCNC(=O)Cc2cccc(Cl)c2)C(C)C(O)C1(C)O.O=CO (stereo not drawn)" data_value="C (200 < X ≦ 1000)"
compound=CC[C@H]1OC(=O)[C@H](C)[C@@H](O)[C@H](C)[C@@H](O[C@@H]2O[C@H](C)C[C@H](N(C)C)[C@H]2O)[C@](C)(O)C[C@@H](C)CN(CCCNCc2ccnc3ccccc23)[C@H](C)[C@@H](O)[C@]1(C)O data_value="C (200 < X ≦ 1000)"
compound="CCC1OC(=O)C(C)C(OC2CC(C)(OC)C(O)C(C)O2)C(C)C(OC2OC(C)CC(N(C)C)C2O)C(C)(O)CC(C)CN(CCCNC(=O)Cc2ccc(OC)cc2)C(C)C(O)C1(C)O.O=CO (stereo not drawn)" data_value="C (200 < X ≦ 1000)"

// below: IC50 W2 requested for another compound
For this compound ( CCC1OC(=O)C(C)C(OC2CC(C)(OC)C(O)C(C)O2)C(C)C(OC2OC(C)CC(N(C)C)C2O)C(C)(O)CC(C)CN(CCCNC(=O)CCC(=O)c2ccccc2)C(C)C(O)C1(C)O.O=CO (stereo not drawn) ), measured IC50 W2 is D (1000 < X ≦ 2500)

---

# IC50 annotations
Test system: Plasmodium falciparum strain 3D7A
Assay explanation: In vitro screening protocol II, [3H] hypoxanthine incorporation IC50 assay, 3D7A
Assay type: cell-based
Conditions used: Plasmodium falciparum, P. falciparum 3D7A
Protocol: The protocol described here is a modification of the in vitro screening protocol I and the details of the methodology are given below. Plasmodium falciparum strains 3D7A and W2. […] The parasitemia was calculated by counting the percentage of parasitized erythrocytes by optical microscopy. […] The glass slides were observed and counted with an optical microscope (Nikon, Eclipse E200) equipped with a 100× immersion oil objective. […]

compound="CC[C@H]1OC(=O)[C@H](C)[C@@H](O[C@H]2C[C@@](C)(OC)[C@@H](O)[C@H](C)O2)[C@H](C)[C@@H](O[C@@H]2O[C@H](C)C[C@H](N(C)C)[C@H]2O)[C@](C)(O)C[C@@H](C)CN(CCCNCC2CCNc3ccccc32)[C@H](C)[C@@H](O)[C@]1(C)O (some centres unmarked)" data_value="0.2 to 1 mg/L"

// below: IC50 requested for another compound
Bench note, Plasmodium falciparum strain 3D7A: entry "CC[C@H]1OC(=O)[C@H](C)[C@@H](O)[C@H](C)[C@@H](O)[C@](C)(O)C[C@@H](C)CN(CCCNc2ccnc3cc(Cl)ccc23)[C@H](C)[C@@H](O)[C@]1(C)O" , its IC50 = < 0.1 mg/L

---

Tested on: Plasmodium falciparum strain 3D7A
Assay explanation: In vitro screening protocol II, [3H] hypoxanthine incorporation IC50 assay, 3D7A
Assay type: cell-based
Conditions used: P. falciparum 3D7A
Quantity kind: IC50 3D7A

The cases that follow already have their IC50 3D7A on record.
compound="CCC1OC(=O)C(C)C(OC2CC(C)(OC)C(O)C(C)O2)C(C)C(OC2OC(C)CC(N(C)C)C2O)C(C)(O)CC(C)CN(CCCNC(=O)c2cc(Cl)ccc2[N+](=O)[O-])C(C)C(O)C1(C)O.O=CO (stereo not drawn)" data_value="D (1000 < X ≦ 2500)"
compound=CC[C@H]1OC(=O)[C@H](C)[C@@H](O[C@H]2C[C@@](C)(OC)[C@@H](O)[C@H](C)O2)[C@H](C)[C@@H](O[C@@H]2O[C@H](C)C[C@H](N(C)C)[C@H]2O)[C@](C)(O)C[C@@H](C)CN(CCCNC(=O)CCc2ccc(F)cc2)[C@H](C)[C@@H](O)[C@]1(C)O.O=CO data_value="D (1000 < X ≦ 2500)"
compound="CCC1OC(=O)C(C)C(OC2CC(C)(OC)C(O)C(C)O2)C(C)C(OC2OC(C)CC(N(C)C)C2O)C(C)(O)CC(C)CN(CCCNC(=O)Cc2ccc(Cl)cc2)C(C)C(O)C1(C)O.O=CO (stereo not drawn)" data_value="C (200 < X ≦ 1000)"
compound=CC[C@H]1OC(=O)[C@H](C)[C@@H](O[C@H]2C[C@@](C)(OC)[C@@H](O)[C@H](C)O2)[C@H](C)[C@@H](O[C@@H]2O[C@H](C)C[C@H](N(C)C)[C@H]2O)[C@](C)(O)C[C@@H](C)CN(CCCNC(=O)Cc2ccccc2[N+](=O)[O-])[C@H](C)[C@@H](O)[C@]1(C)O.O=CO data_value="H (5000 < X ≦ 10000)"
compound="CC[C@H]1OC(=O)[C@H](C)[C@@H](O[C@H]2C[C@@](C)(OC)[C@@H](O)[C@H](C)O2)[C@H](C)[C@@H](O[C@@H]2O[C@H](C)C[C@H](N(C)C)[C@H]2O)[C@](C)(O)C[C@@H](C)CN(CCCNC(=O)C(Cc2ccc(F)cc2)NC(C)=O)[C@H](C)[C@@H](O)[C@]1(C)O.O=CO (stereo partly drawn)" data_value="H (5000 < X ≦ 10000)"

// below: IC50 3D7A requested for another compound
Bench note, Plasmodium falciparum strain 3D7A: entry "CC[C@H]1OC(=O)[C@H](C)[C@@H](O)[C@H](C)[C@@H](O[C@@H]2O[C@H](C)C[C@H](N(C)C)[C@H]2O)[C@](C)(O)C[C@@H](C)CN(CCCNCc2ccnc3ccccc23)[C@H](C)[C@@H](O)[C@]1(C)O" , its IC50 3D7A = C (200 < X ≦ 1000)
